Attribution: PubChem BioAssay (NCI)

System: BT-549 breast
assay.comment: NCI tumour cell line growth inhibition, 48 h; in the data active means GI50 below about 0.43 µM; inactive means the rest
Mark one answer only. Choices: 1.0 (active), 0.0 (inactive)

Use these answered entries as a reference point.
{"columns": ["compound", "answer.label"],
 "data": [
  ["COc1c(N2CCN(CN3C(=O)C(=O)c4ccccc43)C(C)C2)c(F)cc2c(=O)c(C(=O)O)cn(C3CC3)c12 (configuration not stated)", 0.0],
  ["COc1ccc(C(=O)c2cc(C)c(OC)c(C)c2)c(OC)c1N(C(=O)CCl)C(=O)CCl", 1.0],
  ["CCCCCC(=C/c1ccccc1)/C=N/N=C(N)N", 0.0],
  ["O=S(=O)(NCCNc1cc(-c2cn(-c3ccccc3)nc2-c2cccc(O)c2)ccn1)c1ccc(Br)cc1", 0.0],
  ["COC(=O)CCCNC(=O)C(=O)c1c(O)c(O)c(C(C)C)c2cc(C)c(-c3c(C)cc4c(C(C)C)c(O)c(O)c(C(=O)C(=O)NCCCC(=O)OC)c4c3O)c(O)c12", 0.0],
  ["CC(=Nc1ccccc1)C1=C(O)C(Cc2ccc(F)cc2)NC1=O (configuration not stated)", 0.0]
]}

Prompt: Give the logged outcome of this assay for the following compound: "O=C(Nc1ccc(-n2ccc3c(NC(=O)c4ccccc4)nccc32)cc1)c1ccc(N2CCOCC2)c(C(F)(F)F)c1"
Response: 0.0

* * *

Test system: SK-MEL-5 melanoma
assay.comment: NCI tumour cell line growth inhibition, 48 h
Entries and their measured TGI follow.
Your answer is read as µM, so omit the unit and give the number.

Completed entries (count: 8):
{"columns": ["compound", "assay.system", "numeric.value"],
 "data": [
  ["O=C1CCC(N2C(=O)c3cccc(NCCOCCOCCNC(=O)c4cc5c(o4)C(=O)c4ccccc4C5=O)c3C2=O)C(=O)N1 (stereo not given)", "SK-MEL-5 melanoma", 2.07],
  ["Cn1cc2ccccc2c1-c1nc(F)nc(Nc2ccc(N)cc2)n1", "SK-MEL-5 melanoma", 25],
  ["CCCCCCC/C=C1\\CCC(CN(C)C)C1=O (stereo not given)", "SK-MEL-5 melanoma", 34],
  ["C/C(=N\\Nc1nc2ccccc2o1)c1cc2ccccc2cn1", "SK-MEL-5 melanoma", 22.5],
  ["C#CCN(Cc1nc2cc(C(F)(F)F)ccc2nc1-c1ccccc1)c1ccc(F)cc1", "SK-MEL-5 melanoma", 33.3],
  ["Cc1ccc2c(c1)-c1oc(=O)c(-c3cc4ccccc4oc3=O)cc1C(O)O2 (stereo not given)", "SK-MEL-5 melanoma", 33.2],
  ["COc1cc(OC)cc(C(=O)Cc2c(C(=O)c3ccccc3)c3ccccc3n2C(=O)c2ccccc2)c1", "SK-MEL-5 melanoma", 35.1],
  ["N[C@@H](Cc1ccc2oc3cc(=O)c4ccccc4c-3nc2c1)C(=O)O", "SK-MEL-5 melanoma", 24.1]
]}

Here is another compound to look at.
Prompt: Form field: reported TGI of "COC(=O)C1=C(O)c2cc3c(cc2[C@H](c2cc(OC)c(OC)c(OC)c2)C1)OCO3"
Response: 61.1

* * *

Test system: HS 578T breast
assay.comment: NCI tumour cell line growth inhibition, 48 h
observation.type: TGI

Completed entries (count: 4):
{"columns": ["compound", "observation.type", "result"],
 "data": [
  ["Cc1ccc2c(=O)c(C(=O)NNC(=S)NC3CCCCC3)c[nH]c2n1", "TGI", "> 100 µM"],
  ["NC(Cc1c[nH]c2cc(F)ccc12)C(=O)O (stereo unspecified)", "TGI", "> 2500 µM"],
  ["COc1cc(OC2OC(CO)C(O)C(O)C2O)c2c(c1)O[C@@H]1[C@H](O)Oc3cc(OC)c(OC)cc3[C@]1(O)C2=O (stereo partly specified)", "TGI", "> 25 µM"],
  ["CS(=O)(=O)CCC(N)P(=O)(O)O (stereo unspecified)", "TGI", "> 100 µM"]
]}

Prompt: Form field: reported TGI of "COC(=O)/C=C/c1cnc2c(c1)oc(=O)n2C"
Response: > 100 µM

Prompt: Form field: reported TGI of "COc1ccc2[nH]c3c(C)c4ncccc4c(C)c3c2c1"
Response: > 10 µM

* * *

Tested on: OVCAR-8 ovarian
assay.comment: NCI tumour cell line growth inhibition, 48 h; in the data active = GI50 below about 0.43 µM; inactive = the rest
Mark one answer only. Choices: active, inactive

Use these answered entries as a reference point.
{"columns": ["compound", "assay.system", "answer.label"],
 "data": [
  ["O=C1c2ccccc2-c2c1c1ccc([N+](=O)[O-])cc1c(=O)n2CCCn1ccnc1", "OVCAR-8 ovarian", "active"],
  ["C=C(C)[C@@H]1CC[C@]2(CN)CC[C@]3(C)[C@H](CC[C@@H]4[C@@]5(C)CCC(N)[C@@](C)(CO)[C@@H]5CC[C@]43C)[C@@H]12 (stereo partly specified)", "OVCAR-8 ovarian", "inactive"],
  ["CN1CCN(Cc2ccc(NC(=O)c3cccc(C#Cc4c(N)ncc5ccc(F)cc45)c3)cc2C(F)(F)F)CC1", "OVCAR-8 ovarian", "inactive"],
  ["COc1ccc2c(c1)c(-c1ccc(-c3cn(C)c4ccc(OC)cc34)o1)cn2C", "OVCAR-8 ovarian", "inactive"],
  ["Cc1cc(C)c(O)c(CNCCCNCc2cc(C)cc(C)c2O)c1", "OVCAR-8 ovarian", "inactive"]
]}

Please turn your attention to the following entry.
Prompt: Give the logged outcome of this assay for the following compound: Clc1ccc(COC(Cn2ccnc2)c2ccc(Cl)cc2Cl)c(Cl)c1 (stereo unspecified)
Response: inactive

* * *

Tested on: HOP-62 NSCLC
assay.comment: NCI tumour cell line growth inhibition, 48 h
Entries and their measured TGI follow.

Completed entries (count: 7):
{"columns": ["compound", "TGI"],
 "data": [
  ["Nc1nc(Cc2ccccc2)nc(Cc2ccccc2)c1-c1ccccc1", "54 µM"],
  ["Cc1ccc2c(=O)c(C(=O)NNC(=S)NC3CCCCC3)c[nH]c2n1", "> 100 µM"],
  ["C#CCN(Cc1nc2cc(C(F)(F)F)ccc2nc1-c1ccccc1)c1ccc(F)cc1", "> 100 µM"],
  ["CC(C)Cc1ccc(C(C)/C=C2\\CCC(CN3CCCCC3)C2=O)cc1 (stereo not drawn)", "17.6 µM"],
  ["CCN(CC)CCOc1ccc(Cc2ccccc2)cc1", "> 100 µM"],
  ["CCOc1cc(/C=C2\\N=C(c3ccccc3)N(c3nc4ccccc4s3)C2=O)ccc1O", "> 100 µM"],
  ["CCCCSC1=N/C(=C\\c2ccc(N(C)C)cc2)C(Cl)=N1", "> 100 µM"]
]}

Here is another compound to look at.
Prompt: Form field: reported TGI of "COc1ccc2c(c1)c(=O)c1c(NCCCN(C)C)ccc3ncn2c31"
Response: 15 µM

* * *

Entries and their measured TGI follow.
Test system: T-47D breast
assay.comment: NCI tumour cell line growth inhibition, 48 h

Completed entries (count: 8):
{"columns": ["compound", "TGI"],
 "data": [
  ["COC(=O)[C@H](Cc1cn(C)cn1)NC(=O)[C@@H](NC(=O)Nc1cc(C(F)(F)F)cc(C(F)(F)F)c1)C(C)(C)C", "> 10 µM"],
  ["CNC(=O)OCC1=C(COC(=O)NC)C(C)N(c2ccccc2)C1 (centres undefined)", "> 100 µM"],
  ["S=C1SCN(C2CCCCCCCCCCC2)CN1C1CCCCCCCCCCC1", "> 100 µM"],
  ["CCOC1=NC(C(F)(F)F)(C(F)(F)F)N=C(N2CCCCC2)O1", "> 100 µM"],
  ["CCOC(=O)C(=O)C(/C(=N/N(C)C)C(=O)Nc1ccc(C)cc1C)c1nc2ccccc2[nH]c1=O (centres undefined)", "> 100 µM"],
  ["COc1cc(OC2OC(CO)C(O)C(O)C2O)c2c(c1)O[C@@H]1[C@H](O)Oc3cc(OC)c(OC)cc3[C@]1(O)C2=O (some centres undefined)", "> 25 µM"],
  ["OC[C@@H](O)[C@H](O)[C@@H](O)/C=N/Nc1ccc(Cl)nn1", "> 100 µM"],
  ["c1ccc(N2N=C3N(c4ccccc4)C2N3c2ccccc2)cc1", "> 100 µM"]
]}

Here is another compound to look at.
Prompt: Form field: reported TGI of COc1ccc(-c2nc(SC)n(C3OC(COC(C)=O)C(OC(C)=O)C(OC(C)=O)C3OC(C)=O)c(=O)c2C#N)cc1 (centres undefined)
Response: > 100 µM

* * *

Entries and their measured TGI follow.
Tested on: SK-MEL-5 melanoma
assay.comment: NCI tumour cell line growth inhibition, 48 h

Completed entries (count: 4):
{"columns": ["compound", "TGI"],
 "data": [
  ["O=C(COC(=O)c1cccc2c(=O)c3ccccc3[nH]c12)Nc1ccc(S(=O)(=O)Nc2ncccn2)cc1", "> 100 µM"],
  ["COc1ccc(C(=O)N(Cc2cccnc2)C(=S)N(Cc2cccnc2)C(=O)c2ccc(OC)cc2)cc1", "> 100 µM"],
  ["COc1cc(=O)oc(/C=C/C=C/C=C/C(C)=C\\C2(C)OC(C)C(C)(O)C2O)c1C (stereo not given)", "> 100 µM"],
  ["C=COC(=O)N1C2CCCC(Cl)(C(C)=O)C1CC2 (stereo not given)", "> 100 µM"]
]}

Here is another compound to look at.
Prompt: Form field: reported TGI of "COc1c2occc2cc2ccc(=O)oc12"
Response: > 100 µM
